Target: the molecule itself
Test: negative-stain electron microscopy of polymers; FtsZ or variant 2 µM with 1 mM GTP in Pol buffer (50 mM HEPES-NaOH pH 8.0, 200 mM KCl, 10 mM MgCl2), room temperature 5 min, 1% uranyl acetate; self-assembly into filaments

PROTEIN | binding result
6×His-FtsZ (natural protein, E. coli, UniProt P0A9A6 1-383, looked up, FtsZ, E. coli; 6×His-tagged ftsZ amplified from pSEB160 (pSD119); By the printed primer the six His codons follow the start codon and precede Phe2; also called 6×His-tagged FtsZ-FL; source: E. coli JS238 with pSD119, purified (Ni-NTA); not shown: His6, N-terminal, kept) MFEPMELTNDAVIKVIGVGGGGGNAVEHMVRERIEGVEFFAVNTDAQALRKTAVGQTIQIGSGITKGLGAGANPEVGRNAADEDRDALRAALEGADMVFIAAGMGGGTGTGAAPVVAEVAKDLGILTVAVVTKPFNFEGKKRMAFAEQGITELSKHVDSLITIPNDKLLKVLGRGISLLDAFGAANDVLKGAVQGIAELITRPGLMNVDFADVRTVMSEMGYAMMGSGVASGEDRAEEAAEMAISSPLLEDIDLSGARGVLVNITAGFDLRLDEFETVGNTIRAFASDNATVVIGTSLDPDMNDELRVTVVATGIGMDKRPEITLVTNKQVQQPVMDRYQQHGMAPLTQEQKPVAKVVNDNAPQTAKEPDYLDIPAFLRKQAD | binds
FtsZ-K190V (natural protein, E. coli, UniProt P0A9A6 1-383, looked up, FtsZ, E. coli, untagged, with K190V; pSEB160 derivative) MFEPMELTNDAVIKVIGVGGGGGNAVEHMVRERIEGVEFFAVNTDAQALRKTAVGQTIQIGSGITKGLGAGANPEVGRNAADEDRDALRAALEGADMVFIAAGMGGGTGTGAAPVVAEVAKDLGILTVAVVTKPFNFEGKKRMAFAEQGITELSKHVDSLITIPNDKLLKVLGRGISLLDAFGAANDVLVGAVQGIAELITRPGLMNVDFADVRTVMSEMGYAMMGSGVASGEDRAEEAAEMAISSPLLEDIDLSGARGVLVNITAGFDLRLDEFETVGNTIRAFASDNATVVIGTSLDPDMNDELRVTVVATGIGMDKRPEITLVTNKQVQQPVMDRYQQHGMAPLTQEQKPVAKVVNDNAPQTAKEPDYLDIPAFLRKQAD | binds
FtsZ-D86N (natural protein, E. coli, UniProt P0A9A6 1-383, looked up, FtsZ, E. coli, untagged, with D86N; pSEB160 derivative) MFEPMELTNDAVIKVIGVGGGGGNAVEHMVRERIEGVEFFAVNTDAQALRKTAVGQTIQIGSGITKGLGAGANPEVGRNAADEDRNALRAALEGADMVFIAAGMGGGTGTGAAPVVAEVAKDLGILTVAVVTKPFNFEGKKRMAFAEQGITELSKHVDSLITIPNDKLLKVLGRGISLLDAFGAANDVLKGAVQGIAELITRPGLMNVDFADVRTVMSEMGYAMMGSGVASGEDRAEEAAEMAISSPLLEDIDLSGARGVLVNITAGFDLRLDEFETVGNTIRAFASDNATVVIGTSLDPDMNDELRVTVVATGIGMDKRPEITLVTNKQVQQPVMDRYQQHGMAPLTQEQKPVAKVVNDNAPQTAKEPDYLDIPAFLRKQAD | binds
